Test system: HT-29
assay: Growth inhibition of human HT-29 cells after 48 hrs by sulforhodamine B dye-based spectrophotometric assay
Assay type: functional
conditions: HT-29, 48 h
API: label(entry) gives Satisfied if the entry's GI50 is strictly smaller than 1 µM; on equality or larger values it gives Not satisfied.

S=C(N/N=C/c1c[nH]c2ccccc12)Nc1cccc2ccccc12 :: Satisfied

q: Below 1 µM on GI50? Entry `Cc1ccc(N2C(=O)CS/C2=N/N=C/c2c[nH]c3ccc(Br)cc23)cc1`
a: Not satisfied

q: Same question for `Cc1ccc(NC(=S)N/N=C/c2c[nH]c3ccccc23)cc1` please.
a: Not satisfied

q: `S=C(NCCc1ccccc1)N/N=C/c1c[nH]c2ccc(Br)cc12` , same question.
a: Not satisfied

q: And then `S=C(N/N=C/c1c[nH]c2ccc(Br)cc12)Nc1cccc2ccccc12` , what is it?
a: Not satisfied

q: Further, for `O=C1CS/C(=N/N=C/c2c[nH]c3ccccc23)N1c1cccc2ccccc12` ?
a: Not satisfied

q: Proceed to `Cc1ccc(N2C(=O)CS/C2=N/N=C/c2c[nH]c3ccccc23)cc1`
a: Not satisfied

q: Can you handle `S=C(NCCc1ccccc1)N/N=C/c1c[nH]c2ccccc12` next?
a: Not satisfied

q: What do you have for COc1cccc2c1C(=O)c1c(O)c3c(c(O)c1C2=O)C[C@@](O)(C(=O)CO)C[C@@H]3O[C@H]1C[C@H](N)[C@H](O)[C@H](C)O1 [DOXORUBICIN] ?
a: Satisfied

q: # iterate: `O=C1CS/C(=N/N=C/c2c[nH]c3ccc(Br)cc23)N1c1cccc2ccccc12`
a: Not satisfied
